Just for reference, ChEMBL document CHEMBL5579901 is where these values come from.

# maps each entry to its pIC50
- test system: Cyclin-dependent kinases regulatory subunit 1/S-phase kinase-associated protein 2 (Homo sapiens, UniProt Q13309)
- Sequence (P61024 whole entry): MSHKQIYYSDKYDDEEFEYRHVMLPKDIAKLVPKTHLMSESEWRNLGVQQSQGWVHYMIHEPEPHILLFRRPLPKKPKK
- Sequence (Q13309 whole entry): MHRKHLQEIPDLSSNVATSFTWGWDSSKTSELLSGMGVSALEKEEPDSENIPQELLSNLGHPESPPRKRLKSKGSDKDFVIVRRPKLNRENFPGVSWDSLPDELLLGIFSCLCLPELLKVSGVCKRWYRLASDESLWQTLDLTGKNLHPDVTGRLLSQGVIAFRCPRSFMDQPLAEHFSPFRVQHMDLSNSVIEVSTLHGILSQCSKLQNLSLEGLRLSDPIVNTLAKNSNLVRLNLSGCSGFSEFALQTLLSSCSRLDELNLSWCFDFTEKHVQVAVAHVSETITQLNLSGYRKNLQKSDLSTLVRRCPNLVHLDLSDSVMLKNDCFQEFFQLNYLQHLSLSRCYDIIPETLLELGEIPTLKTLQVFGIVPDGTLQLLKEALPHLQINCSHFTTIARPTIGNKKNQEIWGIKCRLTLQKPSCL
- procedure details: Inhibition of GST-tagged SKP2 (unknown origin) binding to His6-tagged CKS1 (unknown origin) preincubated with SKP2 for 10 mins followed by CKS1 addition for 20 mins and measured after by HTRF method
- Assay type: protein assay
In textbook form, pIC50 equals minus log to base ten of the concentration in mol/L.

INSERT INTO assay_data (query_smiles, measurement_kind, result_number) VALUES
  ('Cc1cc(-c2ccc3c(c2)OCCO3)n2nc(SCc3ccc(Br)cc3)nc2n1', 'pIC50', 4.15);

# input What value of pIC50 has been recorded for this entry: COc1cccc(-c2cc(C)nc3nc(SCc4ccc(Br)cc4)nn23)c1
# output 4.39
